FYI, the data here is from BindingDB's records for doi:10.1021/jm010131q.

# assay-system: Bifunctional dihydrofolate reductase-thymidylate synthase (Plasmodium falciparum (isolate K1 / Thailand), UniProt P13922)
# Sequence (P13922 whole entry): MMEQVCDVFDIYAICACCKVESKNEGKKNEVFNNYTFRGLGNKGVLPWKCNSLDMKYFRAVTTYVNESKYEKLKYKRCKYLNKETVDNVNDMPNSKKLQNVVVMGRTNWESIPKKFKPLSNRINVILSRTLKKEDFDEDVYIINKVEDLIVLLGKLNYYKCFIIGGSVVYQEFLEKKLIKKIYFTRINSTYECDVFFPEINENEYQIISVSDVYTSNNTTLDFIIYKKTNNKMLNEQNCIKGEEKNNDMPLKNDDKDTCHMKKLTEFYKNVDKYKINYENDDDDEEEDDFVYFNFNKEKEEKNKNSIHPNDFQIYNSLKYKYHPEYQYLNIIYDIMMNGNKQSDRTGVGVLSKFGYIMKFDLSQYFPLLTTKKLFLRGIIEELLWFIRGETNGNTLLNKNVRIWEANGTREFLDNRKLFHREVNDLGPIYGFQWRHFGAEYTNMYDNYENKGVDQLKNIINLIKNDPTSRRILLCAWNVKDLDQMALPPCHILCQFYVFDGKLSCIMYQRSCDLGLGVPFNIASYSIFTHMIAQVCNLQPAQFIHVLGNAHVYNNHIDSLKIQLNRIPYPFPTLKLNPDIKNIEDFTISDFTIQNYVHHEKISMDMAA
# protocol-text: Inhibition of the wild-type dihydrofolate reductase (DHFR)
So basically: is Ki under 1 nM? Then 1 (yes). Not under? Then 0 (no).

Look over these answered cases.
CCc1nc(N)nc(N)c1-c1ccc(Br)cc1 ... 1 (yes)
COc1cc(Cc2cnc(N)nc2N)ccc1OCCCc1ccccc1 ... 0 (no)
Nc1ncc(Cc2ccc(OCCCOc3cc(Cl)c(Cl)cc3Cl)cc2)c(N)n1 ... 1 (yes)

Record `Nc1ncc(-c2ccc(Cl)cc2)c(N)n1` : is its Ki strictly below 1 nM?
0 (no)

is_below(Ki, 1 nM) for `CCc1nc(N)nc(N)c1-c1ccc(OC)cc1` ?
1 (yes)

Item `COc1cc(Cc2cnc(N)nc2N)cc(OC)c1OCc1ccccc1` : Ki beneath 1 nM, strictly?
0 (no)

For `CCc1nc(N)nc(N)c1-c1ccc(-c2ccccc2)cc1` , is the recorded Ki below the cut-off of 1 nM?
0 (no)
